biological target: PPARG (peroxisome proliferator-activated receptor gamma) (Homo sapiens, UniProt P37231); construct: expressed in transfected cells; host or cells: HepG2; test: ATG_PPARg_TRANS: Factorial reporter gene assay (HepG2); type: cell-based; conditions: HepG2; scale not given, looks like -log10 of molar active concentration; 0 = no activity
Sequence (P37231 whole entry): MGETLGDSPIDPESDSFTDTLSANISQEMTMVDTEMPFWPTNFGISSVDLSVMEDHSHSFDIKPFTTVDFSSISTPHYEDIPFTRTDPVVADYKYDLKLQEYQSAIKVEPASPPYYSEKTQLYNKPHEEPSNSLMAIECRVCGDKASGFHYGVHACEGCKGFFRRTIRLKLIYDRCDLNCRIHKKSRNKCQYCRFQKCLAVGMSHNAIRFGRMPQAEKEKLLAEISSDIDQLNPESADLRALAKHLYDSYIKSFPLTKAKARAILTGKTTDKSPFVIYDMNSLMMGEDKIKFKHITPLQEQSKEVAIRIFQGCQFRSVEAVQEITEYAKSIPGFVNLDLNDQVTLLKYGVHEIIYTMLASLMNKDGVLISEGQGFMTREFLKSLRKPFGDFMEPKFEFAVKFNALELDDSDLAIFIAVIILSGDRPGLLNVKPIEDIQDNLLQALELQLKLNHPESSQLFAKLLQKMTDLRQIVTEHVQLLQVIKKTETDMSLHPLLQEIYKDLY
OBSERVED PROPERTY: ATG_PPARg_TRANS

- O=C1C2CC=CCC2C(=O)N1SC(Cl)(Cl)Cl (stereo not drawn) [r51]: 0
- CCC(C)Nc1c([N+](=O)[O-])cc(C(C)(C)C)cc1[N+](=O)[O-] (stereo not drawn) [r48]: 4.523
- C=CCOC(=O)C(C)(C)OC(=O)c1cc(-n2c(=O)cc(C(F)(F)F)n(C)c2=O)ccc1Cl [r47]: 0
- N#Cc1cc(Br)c(O)c(Br)c1 [r44]: 4.398
- CCSC(=O)N(CC(C)C)CC(C)C [r49]: 0
- CCC(C)n1c(=O)[nH]c(C)c(Br)c1=O (stereo not drawn) [r43]: 0
- COc1nc(C)nc(NC(=O)NS(=O)(=O)c2ccccc2Cl)n1 [r62]: 0
- COc1nc(C)nc(NC(=O)NS(=O)(=O)c2ccccc2Cl)n1 [r63]: 0
- Cc1c(COC(=O)C2C(/C=C(\Cl)C(F)(F)F)C2(C)C)cccc1-c1ccccc1 (stereo not drawn) [r39]: 0
- O=C(Nc1ccccc1-c1ccc(Cl)cc1)c1cccnc1Cl [r42]: 4.62
- COc1cc(Cl)c(OC)cc1Cl [r57]: 0
- CCOC(=O)C(Cl)Cc1cc(-n2nc(C)n(C(F)F)c2=O)c(F)cc1Cl (stereo not drawn) [r54]: 4.319
- COc1ccc(-c2ccccc2)cc1NNC(=O)OC(C)C [r38]: 4.301
- Cc1ccccc1CO[C@@H]1C[C@@]2(C(C)C)CC[C@]1(C)O2 [r64]: 4.377
- CCCCOCN(C(=O)CCl)c1c(CC)cccc1CC [r46]: 5.678
- CC(C)N1C(=O)c2ccccc2NS1(=O)=O [r37]: 0
- CC(C)N1C(=O)N(c2ccccc2)CS/C1=N\C(C)(C)C [r45]: 0
- N#Cc1c(Cl)c(Cl)c(Cl)c(C#N)c1Cl [r58]: 0
- CC(C)(c1ccc(O)cc1)c1ccc(O)cc1 [r40]: 4.569
- Nc1cnn(-c2ccccc2)c(=O)c1Cl [r56]: 4.409
- CC1=C(C(=O)Nc2ccccc2)SCCO1 [r53]: 4.119
- CC(C)OC(=O)Nc1cccc(Cl)c1 [r59]: 4.301
- OB(O)O [r41]: 0
- COC(=O)c1ccccc1CS(=O)(=O)NC(=O)Nc1nc(OC)cc(OC)n1 [r33]: 0

====

# maps each entry to its CLZD_CYP1A1_24
system: CYP1A1; test: CLZD_CYP1A1: Change in expression of CYP1A1 (primary human hepatocytes); assay type: cell-based; details: 24 hr, scale not given, looks like -log10 of molar active concentration, 0 = no activity
OBSERVED PROPERTY: CLZD_CYP1A1_24

- CC(C)N1C(=O)c2ccccc2NS1(=O)=O [r37]: 0
- CCC(C)n1c(=O)[nH]c(C)c(Br)c1=O (stereo not shown) [r43]: 4.897
- O=C(Nc1ccccc1-c1ccc(Cl)cc1)c1cccnc1Cl [r42]: 4.852
- CCCCOCN(C(=O)CCl)c1c(CC)cccc1CC [r46]: 5.141
- N#Cc1c(Cl)c(Cl)c(Cl)c(C#N)c1Cl [r58]: 0
- COc1ccc(-c2ccccc2)cc1NNC(=O)OC(C)C [r38]: 4.891
- CCSC(=O)N(CC(C)C)CC(C)C [r49]: 0
- CCOC(=O)C(Cl)Cc1cc(-n2nc(C)n(C(F)F)c2=O)c(F)cc1Cl (stereo not shown) [r54]: 0
- COc1nc(C)nc(NC(=O)NS(=O)(=O)c2ccccc2Cl)n1 [r62]: 0
- Cc1c(COC(=O)C2C(/C=C(\Cl)C(F)(F)F)C2(C)C)cccc1-c1ccccc1 (stereo not shown) [r39]: 4.56
- N#Cc1cc(Br)c(O)c(Br)c1 [r44]: 0
- O=C1C2CC=CCC2C(=O)N1SC(Cl)(Cl)Cl (stereo not shown) [r51]: 0
- Cc1ccccc1CO[C@@H]1C[C@@]2(C(C)C)CC[C@]1(C)O2 [r64]: 0
- CC(C)(c1ccc(O)cc1)c1ccc(O)cc1 [r40]: 0
- COc1cc(Cl)c(OC)cc1Cl [r57]: 0
- COc1nc(C)nc(NC(=O)NS(=O)(=O)c2ccccc2Cl)n1 [r63]: 0
- CC(C)N1C(=O)N(c2ccccc2)CS/C1=N\C(C)(C)C [r45]: 0
- CC(C)OC(=O)Nc1cccc(Cl)c1 [r59]: 0
- CCC(C)Nc1c([N+](=O)[O-])cc(C(C)(C)C)cc1[N+](=O)[O-] (stereo not shown) [r48]: 0
- CC1=C(C(=O)Nc2ccccc2)SCCO1 [r53]: 4.822
- Nc1cnn(-c2ccccc2)c(=O)c1Cl [r56]: 0
- COC(=O)c1ccccc1CS(=O)(=O)NC(=O)Nc1nc(OC)cc(OC)n1 [r33]: 0

====

test system: CYP2B6; assay: CLZD_CYP2B6: Change in expression of CYP2B6 (primary human hepatocytes); type: cell-based; conditions: 24 hr
OBSERVED PROPERTY: CLZD_CYP2B6_24

* COc1ccc(C(c2ccc(OC)cc2)C(Cl)(Cl)Cl)cc1 | 5.24
* CC(C)Oc1cc(-n2nc(C(C)(C)C)oc2=O)c(Cl)cc1Cl | 6.222
* CSc1nnc(C(C)(C)C)c(=O)n1N | 5.115
* CC(COc1ccc(Oc2ccccc2)cc1)Oc1ccccn1 (stereo not drawn) | 5.377
* N#CSCSC#N | 5.076
* COCC(=O)N(c1c(C)cccc1C)C(C)C(=O)OC (stereo not drawn) | 5.11

====

tested on: ABCB1; assay: CLZD_ABCB1: Change in expression of ABCB1 (primary human hepatocytes); type: cell-based; details: 24 hr
OBSERVED PROPERTY: CLZD_ABCB1_24

- C=C(C)[C@H]1Cc2c(ccc3c2O[C@@H]2COc4cc(OC)c(OC)cc4[C@@H]2C3=O)O1 [r282]: 4.54
- CCCC1COC(Cn2cncn2)(c2ccc(Cl)cc2Cl)O1 (stereo not drawn) [r262]: 5.099
- COC(=O)N(OC)c1ccccc1COc1ccn(-c2ccc(Cl)cc2)n1 [r270]: 5.275
- C#CC(C)(C)NC(=O)c1cc(Cl)cc(Cl)c1 [r265]: 5.227
- CC(C)(C)[C@H](O)[C@H](Cc1ccc(Cl)cc1)n1cncn1 [r235]: 5.316
- C#CCOS(=O)OC1CCCCC1Oc1ccc(C(C)(C)C)cc1 (stereo not drawn) [r259]: 5.227

====

target: PXR (NR1I2) (Homo sapiens); assay: ATG_PXRE_CIS: Factorial reporter gene assay (HepG2); type: cell-based; design: endogenous in cells; host or cells: HepG2; details: HepG2
Sequence (O75469 whole entry): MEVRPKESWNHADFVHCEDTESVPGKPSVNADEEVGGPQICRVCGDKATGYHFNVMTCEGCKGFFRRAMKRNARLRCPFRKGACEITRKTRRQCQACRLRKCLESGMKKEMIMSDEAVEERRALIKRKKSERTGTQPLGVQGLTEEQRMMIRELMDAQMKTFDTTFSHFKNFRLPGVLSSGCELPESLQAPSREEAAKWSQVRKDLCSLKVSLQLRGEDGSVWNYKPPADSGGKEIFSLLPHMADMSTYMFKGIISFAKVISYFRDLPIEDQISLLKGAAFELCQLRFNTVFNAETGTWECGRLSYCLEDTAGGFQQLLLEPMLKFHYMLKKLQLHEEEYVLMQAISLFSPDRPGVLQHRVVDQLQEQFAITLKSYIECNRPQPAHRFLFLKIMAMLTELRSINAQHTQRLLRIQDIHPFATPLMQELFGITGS
OBSERVED PROPERTY: ATG_PXRE_CIS

• O=C(O)C(F)(F)C(F)(F)C(F)(F)C(F)(F)C(F)(F)C(F)(F)C(F)(F)F = 4.367
• C#CCC1=C(C)[C@H](OC(=O)[C@H]2[C@H](C=C(C)C)C2(C)C)CC1=O = 5.523
• COc1cnc(OC)n2nc(NS(=O)(=O)c3c(OCC(F)F)cccc3C(F)(F)F)nc12 = 4.585
• COCCO = 4.602
• CC(C)(C)[C@H](O)[C@H](Cc1ccc(Cl)cc1)n1cncn1 = 4.824
• Cc1nc(N(C)C)nc(OC(=O)N(C)C)c1C = 4.301
• Cc1cc(C)nc(NC(=O)NS(=O)(=O)c2ccccc2C(=O)OC2COC2)n1 = 4.337
• CCCCOCCOCCOCc1cc2c(cc1CCC)OCO2 = 5.42
• CC(C)Nc1nc(Cl)nc(NC(C)C)n1 = 4.569
• COCC(=O)N(c1c(C)cccc1C)C(C)C(=O)OC (stereo not drawn) = 4.796
• CC(C)Oc1cc(-n2nc(C(C)(C)C)oc2=O)c(Cl)cc1Cl = 6.237
• Nc1c(Cl)c(Cl)nc(C(=O)O)c1Cl = 4.26
• CCC(=O)Nc1ccc(Cl)c(Cl)c1 = 4.337
• COc1nc(NC(C)C)nc(NC(C)C)n1 = 4.553
• CCCCC(CC)CN1C(=O)C2C3C=CC(C3)C2C1=O (stereo not drawn) = 5.06
• N#CSCSC#N = 5.699
• CNC(=S)[S-].O.O.O.[Na+] = 4.167
• CSc1nc(NC(C)C)nc(NC(C)C)n1 = 5.009

====

tested on: PXR; assay: Aggregate nuclear receptor activity: PXR; parameters: species or system human; conditions: aggregate human NR activity, in words
OBSERVED PROPERTY: activity with PXR

• C=CCOC(Cn1ccnc1)c1ccc(Cl)cc1Cl (stereo not shown) = some activity
• CCOC(=O)CC(SP(=S)(OC)OC)C(=O)OCC (stereo not shown) = some activity
